Where do these numbers come from? They come from paper PMC6155852.

assay: Plasma pharmacokinetics of KBGY constituents in rats after single oral administration of KBGY; format: in vivo, rat; conditions: rat plasma, single oral KBGY 2 g/kg; read-out: t1/2 (converted)
Result type: half-life (h)
Numbers only, in h.

### Prompt Which half-life reading was recorded for the compound C=C(CC[C@@H](C(=O)O)[C@H]1[C@H](O)C[C@@]2(C)C3=CC[C@H]4C(C)(C)[C@@H](O)CC[C@]4(C)C3=CC[C@]12C)C(C)C [Dehydrotumulosic acid] ?
### Response 3.81

----------
Test: Plasma pharmacokinetics of KBGY constituents in rats after single oral administration of KBGY
Type: in vivo, rat
Settings: rat, in vivo, po, 2 g/kg
Description: KBGY prepared in water was administered orally to 16 h fasted rats at a dose of 2 g/10 mL/kg (n = 3). […] Plasma was obtained by centrifugation at 1700× g for 15 min at 4 °C and stored at −80 °C until analysis. For quantification of the dicarboxylic acid, 50 µL of standard solution, 100 µL of acetic acid (2%, v/v), and 650 µL of ethyl acetate were added to 200 µL of plasma samples, followed by mixing and centrifugation (7000× g, 5 min). […]
Result type: AUC(0-t) (ng·h/mL)
Answers are plain numbers, in ng·h/mL.

INSERT INTO assay_data (smiles_entry, number) VALUES
  ('O=C/C=C/c1ccccc1', 51.6);

Batch lookup, AUC(0-t) per entry.
1. COc1cc(C(=O)O)cc(O)c1O
2. COc1cc(C[C@H]2CO[C@H](c3ccc(O)c(OC)c3)[C@H]2CO)ccc1O
3. C[C@@]12C[C@@]3(O)O[C@@H](O1)[C@]1(COC(=O)c4ccccc4)[C@H]3C[C@@]12O[C@@H]1O[C@H](CO)[C@@H](O)[C@H](O)[C@H]1O

### Response
[58.6, 9.84, 299]

----------
assay: Lipid hydroperoxide (LPO) generation assay (linoleic acid, Fenton reaction); format: biochemical; conditions: 1 μmol/L
What Antioxidant Activity (% of Control) LPO Generation was measured for each of the following?

These solved cases illustrate the format of a correct answer.
INSERT INTO results (molecule, result) VALUES
  ('COc1cc([C@H]2OC[C@H]3[C@@H]2CO[C@@H]3c2cc(OC)c(O)c(OC)c2)cc(OC)c1O (racemic) [(±)-Syringaresinol]', '107.4 ± 4.2 % of Control'),
  ('COc1cc(C[C@H]2CO[C@H](c3ccc(O)c(OC)c3)[C@H]2CO)ccc1O', '98.3 ± 1.4 % of Control'),
  ('O=C1OC[C@H](Cc2cccc(O)c2)[C@H]1Cc1cccc(O)c1', '102.1± 2.7 % of Control'),
  ('OC[C@H](Cc1cccc(O)c1)[C@H](CO)Cc1cccc(O)c1', '95.2 ± 4.4 % of Control');

// next entry
### Prompt Which Antioxidant Activity (% of Control) LPO Generation reading was recorded for the molecule COc1cc([C@@H]2c3c(cc(OC)c(O)c3OC)C[C@H](CO)[C@H]2CO)cc(OC)c1O ?
### Response 96.8 ± 2.9 % of Control

----------
Experiment: Plasma pharmacokinetics of KBGY constituents in rats after single oral administration of KBGY
Assay type: in vivo, rat
Details: in vivo; rat plasma, single oral KBGY 2 g/kg; read-out: tmax
Experimental: KBGY prepared in water was administered orally to 16 h fasted rats at a dose of 2 g/10 mL/kg (n = 3). […] Plasma was obtained by centrifugation at 1700× g for 15 min at 4 °C and stored at −80 °C until analysis. For quantification of the dicarboxylic acid, 50 µL of standard solution, 100 µL of acetic acid (2%, v/v), and 650 µL of ethyl acetate were added to 200 µL of plasma samples, followed by mixing and centrifugation (7000× g, 5 min). […]
What Tmax was measured for each of the following?
Numbers only, in min.

These solved cases illustrate the format of a correct answer.
INSERT INTO assay_data (molecule, result_type, number) VALUES
  ('N#C[C@H](O[C@@H]1O[C@H](CO[C@@H]2O[C@H](CO)[C@@H](O)[C@H](O)[C@H]2O)[C@@H](O)[C@H](O)[C@H]1O)c1ccccc1 [Amygdalin]', 'Tmax', 30),
  ('N#C[C@H](O[C@@H]1O[C@H](CO)[C@@H](O)[C@H](O)[C@H]1O)c1ccccc1 [Prunasin]', 'Tmax', 60),
  ('N#CC(O)c1ccccc1 (stereo not shown) [Mandelonitrile]', 'Tmax', 60);

### Prompt Which Tmax reading was recorded for the molecule O=C(O)c1cc(O)c(O)c(O)c1 [Gallic acid] ?
### Response 30
